Recorded values, source patent US20230416248A1.

Molecular target: BRG-1 (Homo sapiens, UniProt P51532)
Construct: made in house; host or cells: High Five insect cells
Sequence (P51532 whole entry): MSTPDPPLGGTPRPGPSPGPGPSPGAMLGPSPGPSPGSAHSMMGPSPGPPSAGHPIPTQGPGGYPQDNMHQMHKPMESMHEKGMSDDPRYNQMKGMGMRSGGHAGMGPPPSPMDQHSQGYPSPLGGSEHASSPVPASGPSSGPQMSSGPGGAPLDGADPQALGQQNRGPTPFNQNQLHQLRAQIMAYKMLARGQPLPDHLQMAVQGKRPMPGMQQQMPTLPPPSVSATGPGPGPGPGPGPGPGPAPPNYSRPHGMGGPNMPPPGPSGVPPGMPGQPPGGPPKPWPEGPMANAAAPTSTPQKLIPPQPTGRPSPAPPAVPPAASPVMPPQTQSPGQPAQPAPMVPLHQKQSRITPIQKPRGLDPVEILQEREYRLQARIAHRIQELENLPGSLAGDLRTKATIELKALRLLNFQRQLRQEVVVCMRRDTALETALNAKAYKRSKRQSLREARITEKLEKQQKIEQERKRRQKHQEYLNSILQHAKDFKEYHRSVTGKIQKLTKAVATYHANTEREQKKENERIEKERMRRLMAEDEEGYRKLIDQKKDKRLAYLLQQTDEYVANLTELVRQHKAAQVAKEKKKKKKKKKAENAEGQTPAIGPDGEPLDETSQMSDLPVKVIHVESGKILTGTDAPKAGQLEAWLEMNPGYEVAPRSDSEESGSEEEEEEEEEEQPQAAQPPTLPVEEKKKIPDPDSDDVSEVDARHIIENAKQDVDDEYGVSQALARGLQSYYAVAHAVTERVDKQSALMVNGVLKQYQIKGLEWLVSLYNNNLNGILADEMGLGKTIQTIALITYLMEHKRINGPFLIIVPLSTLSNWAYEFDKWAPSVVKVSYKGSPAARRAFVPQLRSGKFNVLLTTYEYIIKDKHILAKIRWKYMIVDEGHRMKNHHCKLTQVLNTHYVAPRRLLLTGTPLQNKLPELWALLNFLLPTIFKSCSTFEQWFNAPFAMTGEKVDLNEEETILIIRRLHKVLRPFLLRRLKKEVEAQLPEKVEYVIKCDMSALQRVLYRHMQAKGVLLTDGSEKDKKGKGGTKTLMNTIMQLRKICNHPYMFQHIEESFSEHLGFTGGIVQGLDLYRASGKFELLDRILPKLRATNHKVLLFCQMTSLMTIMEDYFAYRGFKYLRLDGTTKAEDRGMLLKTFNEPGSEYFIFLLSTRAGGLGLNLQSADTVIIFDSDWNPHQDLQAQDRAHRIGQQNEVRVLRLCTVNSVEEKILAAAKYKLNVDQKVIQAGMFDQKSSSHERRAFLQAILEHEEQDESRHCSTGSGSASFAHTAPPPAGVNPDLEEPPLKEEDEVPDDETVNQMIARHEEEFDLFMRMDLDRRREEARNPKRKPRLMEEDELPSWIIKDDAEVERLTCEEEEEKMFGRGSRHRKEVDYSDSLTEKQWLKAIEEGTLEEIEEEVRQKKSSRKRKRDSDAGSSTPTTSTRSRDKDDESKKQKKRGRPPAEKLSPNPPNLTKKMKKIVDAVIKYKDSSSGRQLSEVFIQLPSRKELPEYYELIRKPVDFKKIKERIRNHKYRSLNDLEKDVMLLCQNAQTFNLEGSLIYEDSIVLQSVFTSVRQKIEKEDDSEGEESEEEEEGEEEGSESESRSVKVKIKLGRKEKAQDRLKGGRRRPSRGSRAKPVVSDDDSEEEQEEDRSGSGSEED
Test: ATPase catalytic activity of BRG-1, ADP-Glo in vitro biochemical assay
Conditions: ATPase catalytic activity, ADP-Glo; 30 nM BRG-1, 400 μM ATP; read-out: BRG1 IC50
QUANTITY_MEASURED: IC50 (nM)

Take a look at these entries with their results.
INSERT INTO results (compound, test_system, quantity_measured, measured_result) VALUES
  ('O=C(NCc1cc2nc(-c3cccc([C@]45CCOCC4C5)n3)ccc2cn1)c1ccc2c(c1)S(=O)(=O)CCOC2 (stereo partly shown)', 'BRG-1 (Homo sapiens, UniProt P51532)', 'IC50', 152),
  ('Cc1cnc2c(c1)OCCN2c1ccc2cnc(CNC(=O)c3ccc4c(c3)S(=O)(=O)C(C)COC4)cc2n1 (stereo not shown)', 'BRG-1 (Homo sapiens, UniProt P51532)', 'IC50', 65.9);

P. CO[C@H]1C[C@@H]1N(C)c1cccc(-c2ccc3cnc(CNC(=O)c4ccc5c(c4)S(=O)(=O)[C@@H](C)COC5)cc3n2)n1
Q. O=C(NCc1cc2nc(N3CCCCc4cccnc43)ccc2cn1)c1ccc2c(c1)S(=O)(=O)CCOC2
Incoming: Sort P and Q by IC50 descending and give the first. Answer with the label corresponding to your selection.
Outgoing: Q

====

Target: BRG-1 (Homo sapiens)
Construct: made in house; host or cells: High Five insect cells
Assay: ATPase catalytic activity of BRG-1, ADP-Glo in vitro biochemical assay
Details: ATPase catalytic activity, ADP-Glo; 30 nM BRG-1, 400 μM ATP; read-out: BRG1 IC50
QUANTITY_MEASURED: IC50 (nM)

Take a look at these entries with their results.
INSERT INTO results (compound, measured_result) VALUES
  ('C[C@@H]1CN(c2cccc(-c3ccc4cnc(CNC(=O)c5cc(Cl)c6c(c5)S(=O)(=O)[C@@H](C)COC6)cc4n3)n2)C[C@H](C)O1', 152),
  ('CN1C(=O)CN(c2ccc3cnc(CNC(=O)c4ccc5c(c4)S(=O)(=O)CCOC5)cc3n2)c2ccccc21', 835),
  ('C[C@@H]1CN(c2cccc(-c3ccc4cnc(CNC(=O)c5cc(Cl)c6c(c5)S(=O)(=O)CC[C@H](C)O6)cc4n3)n2)C[C@H](C)O1', 645),
  ('O=C(NCc1cc2nc(-c3cccc(N4CC[C@@H]5C[C@@H]5C4)n3)ccc2cn1)c1ccc2c(c1)S(=O)(=O)CCOC2', 195);

1. O=C(NCc1cc2nc(-c3cccc4c3CC3COCCN43)ccc2cn1)c1ccc2c(c1)S(=O)(=O)CCOC2 (centres unmarked)
2. Cn1cnc2c1CCCN2c1ccc2cnc(CNC(=O)c3ccc4c(c3)S(=O)(=O)CCOC4)cc2n1
3. COC[C@@H]1C[C@@H]1N(C)c1cccc(-c2ccc3cnc(CNC(=O)c4ccc5c(c4)S(=O)(=O)CCOC5)cc3n2)n1
4. C[C@@H]1CN(c2cccc(-c3ccc4cnc(CNC(=O)c5cc(Cl)c6c(c5)S(=O)(=O)CCO[C@@H]6C)cc4n3)n2)C[C@H](C)O1
Incoming: # desc sort on IC50 across 4 compounds Please list the labels in the order you were asked to rank them.
Outgoing: 2, 1, 4, 3
(2: 1710 nM, 1: 828 nM, 4: 458 nM, 3: 210 nM)
